# assay_remarks: qHTS assay to identify small molecule inhibitors of chordoma cells - UCH-2 (AID 1259356)
# measurement_setup: UCH-2 chordoma viability, CellTiter-Glo ATP luminescence, 48 h; series mostly up to 46.1 µM
# From the text: NIH Chemical Genomics Center [NCGC] Chordoma is a rare and slow growing tumor that can occur anywhere along the spine, from the base of the skull to the tailbone. Current treatment options for chordoma is surgery and radiation therapy for those who are not candidates for surgery. But chordomas tend to return in the same location or surrounding areas of the original tumor after surgery and/or radiation. Chemotherapy can slow down the progression of the tumor. […]
Records with an inconclusive call do not appear. Calls of active or inactive are those of the source. Calls come from the whole dose curve; as a rule, active = well fitted cell-killing curve with a large enough effect; inconclusive = small, poorly fitted or top-dose-only effect; inactive = flat fitted curve, though single readings scatter.
Answer with one of the outcomes given here: active, inactive

These solved cases illustrate the format of a correct answer.
INSERT INTO results (compound, class) VALUES
  ('OC(c1ccccc1)(c1ccccc1)C1CN2CCC1CC2 (stereo not drawn)', 'inactive'),
  ('O=C1CN=C(c2ccccc2)c2cc(Cl)ccc2N1CC1CC1', 'inactive'),
  ('C[CH2][Hg][S]c1ccccc1C(=O)O', 'active'),
  ('O=C1CCCCC1CN1CCCCC1 (stereo not drawn)', 'inactive'),
  ('ClC1=C(Cl)[C@]2(Cl)[C@@H]3[C@H]4C[C@H]([C@@H]5O[C@H]45)[C@@H]3[C@@]1(Cl)C2(Cl)Cl', 'inactive');

Req: Hello, I am checking results. What call was entered for CCCC(C)C1(CC)C(=O)NC(=O)NC1=O (stereo not drawn) ?
Resp: inactive

Req: // param item: C[N+]1(C)[C@@H]2CC[C@H]1CC(OC(=O)c1c[nH]c3ccccc13)C2 (stereo partly drawn) ; yields the recorded call
Resp: inactive

Req: What is the recorded call for this compound in the test? CC(C)CCON=O
Resp: inactive

Req: Tell me the recorded outcome of this test for Cc1cccc(C(C)c2cnc[nH]2)c1C (stereo not drawn) .
Resp: inactive

Req: So what was the verdict on COC1=CC=C2[C@H]3Cc4ccc(OC)c5c4[C@@]2(CCN3C)[C@H]1O5 in this test?
Resp: inactive

Req: Tell me the assay call for O=[N+]([O-])c1ccc(F)c([N+](=O)[O-])c1 please.
Resp: inactive

Req: What did this assay record as the result for O=C(CS(=O)C(c1ccccc1)c1ccccc1)NO (stereo not drawn) ?
Resp: inactive

Req: Query: recorded result category for CCCC(C)(COC(N)=O)COC(=O)NC1CC1 (stereo not drawn) in this test
Resp: inactive

* * *

# system_name: Nicotinamide N-methyltransferase (Homo sapiens)
# assay_remarks: Confirmatory Screen for Target Class Profiling of Small Molecule Inhibitors of Methyltransferases (AID 1745852)
# measurement_setup: MTase-Glo luminescence, SAH detection, recombinant enzyme; measured here: NNMT max response; stronger effect = lower value
compounds and their reported activity
Please reply with the bare figure in % and do not write the unit itself.

INSERT INTO assay_data (compound, quantity_name, measurement_unit, recorded_measurement) VALUES
  ('CN1CCC[C@@H]1Cc1c[nH]c2ccc(Nc3ncccc3[N+](=O)[O-])cc12', 'activity', '%', -4.11),
  ('CN(N=O)c1cc(O)ccc1O', 'activity', '%', -67.2);

Req: Please look at this compound and report its activity: CCCN1CC[C@@H]2c3cc(O)ccc3CC[C@@H]21
Resp: -3.17

Req: Report activity, nothing else, for this compound: CN1CCc2cc(O)cc3c2[C@H]1Cc1ccc(O)c(O)c1-3
Resp: -4.5

* * *

# system_name: Mitogen-activated protein kinase 10 (Mus musculus) (UniProt Q61831)
# assay_remarks: JNK3 AlphaScreen Assay (AID 530);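 note: kinase came from lysate of stimulated human HepG2 cells; signal reports phosphorylation of biotinylated GST-cJun 1-79 at Ser73 with 10 µM ATP; % is set by controls: 0 for no effect and ±100 for the full control effect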
# measurement_setup: JNK3 lysate, c-Jun phosphorylation; series mostly up to 57.1 µM
Results filed as inconclusive are left out. The source made the active and inactive calls. Calls follow the shape of the dose curve; as a rule, active = well fitted curve in either direction with a large enough effect (not every such curve was filed as active); inconclusive = small, poorly fitted or top-dose-only effect, or another doubt; inactive = flat fitted curve, though single readings scatter.
quantity_name: outcome

INSERT INTO assay_data (smiles_record, recorded_measurement) VALUES
  ('O=[N+]([O-])c1ccc2nc(N3CCNCC3)ccc2c1', 'inactive'),
  ('CCCCCCCCOC(=O)c1ccccc1C(=O)OCCCCCCCC', 'inactive'),
  ('Clc1ccc(N2C[C@H]3CC[C@@H](C2)N3)nn1', 'inactive'),
  ('CCCN(CCC)CCc1c[nH]c2ccc(C(N)=O)cc12', 'inactive'),
  ('CC(C)CCON=O', 'inactive'),
  ('c1ccc2c(c1)[I+]c1ccccc1-2', 'inactive'),
  ('CCCN(CCC)[C@H]1CCc2c(F)ccc(O)c2C1', 'inactive'),
  ('O=C1CCO1', 'inactive'),
  ('NC(=O)CI', 'inactive'),
  ('CC(C)(C)c1cc(C=C(C#N)C#N)cc(C(C)(C)C)c1O', 'inactive');

Req: Output outcome of COc1ccc2[nH]cc(CCN)c2c1
Resp: inactive

Req: # return recorded outcome for input C[C@]12CCC(=O)C[C@@H]1CC[C@@H]1[C@@H]2CC[C@]2(C)[C@@H](O)CC[C@@H]12
Resp: inactive

Req: Give the value of outcome reported for the following: Cc1sc2ccccc2c1CC1=NCCN1
Resp: inactive

Req: Find the measured outcome of CCC1(C)CC(=O)NC(=O)C1 and report it.
Resp: inactive

* * *

# assay_remarks: qHTS assay to identify inhibitors of the type 1 interferon - major histocompatibility complex class I in skeletal muscle: Counter screen cell viability and HiBit confirmation (AID 1347412); note: nearly all actives have a fitted effect of over 60% in size
# measurement_setup: iHSKM muscle cells + IFN-b, HiBiT or CellTiter-Glo, 24 h; HiBiT
Results filed as inconclusive are left out. Calls of active or inactive are those of the source. The call rests on the fitted dose curve; in most records, active means well fitted inhibition curve with a large enough effect; inconclusive means small, poorly fitted or top-dose-only effect; inactive means no such curve, though single readings can be large or run the other way.
Classes to choose from: True (active), False (inactive)

INSERT INTO measurements (compound, class) VALUES
  ('Cc1c2ccncc2c(C)c2c1[nH]c1ccccc12', 'True');

Req: Called result for CNc1ccc2oc(C[C@H]3O[C@@]4(CC[C@H]3C)O[C@H]([C@H](C)C(=O)c3ccc[nH]3)[C@H](C)C[C@H]4C)nc2c1C(=O)O
Resp: True

Req: Each compound tested received a call. Report the one for CC(C)(C)c1cc(C=C(C#N)C#N)cc(C(C)(C)C)c1O .
Resp: False

Req: Tell me the assay call for CC1(C(=O)O)C2CCC(O2)C1(C)C(=O)O (centres undefined) please.
Resp: False

* * *

# Test system: CP260
# assay_remarks: qHTS profiling for inhibitors of Plasmodium falciparum proliferation (AID 504749); note: nearly all actives have a fitted effect of over 60% in size
# measurement_setup: P. falciparum in erythrocytes, SYBR Green DNA, 72 h; series mostly up to 28.7 µM
Records with an inconclusive call do not appear. Active and inactive are the calls of the source. Calls follow the shape of the dose curve; as a rule, active = well fitted inhibition curve with a large enough effect; inconclusive = small, poorly fitted or top-dose-only effect; inactive = flat fitted curve, though single readings scatter.
Assign a class; possible classes are active, inactive

Study these solved cases before continuing.
INSERT INTO assay_data (molecule, class) VALUES
  ('O[C@H]1[C@H]2[C@H](O)CCCN2C[C@H]1O', 'inactive'),
  ('O=C1CC[C@@]2(O)C3Cc4ccc(O)c5c4C2(CCN3CC2CC2)[C@H]1O5 (some centres undefined)', 'inactive'),
  ('O=C(CCl)c1ccc(Oc2ccc(C(=O)CCl)cc2)cc1', 'inactive'),
  ('O=C1C2CC=CCC2C(=O)N1SC(Cl)(Cl)Cl (centres undefined)', 'inactive');

Req: Short answer needed: outcome of this test for CCCC(C)(COC(N)=O)COC(=O)NC1CC1 (centres undefined) ?
Resp: inactive

Req: For this molecule, state the assay outcome: O=c1[nH]c(=O)n(Cl)c(=O)n1Cl
Resp: inactive

Req: Dear all, I need the recorded test outcome for CC[N+](C)(CC)CCOC(=O)C(O)(c1ccccc1)c1ccccc1 , thank you.
Resp: inactive

Req: Each molecule tested received a call. Report the one for [O]=[Cd] .
Resp: inactive

Req: Per the records of this test, what outcome belongs to O=C/C=C/c1ccccc1 ?
Resp: inactive

Req: Call for entry C[C@H]1CC[C@@H]2[C@@H](C)[C@H]3[C@H](C[C@H]4[C@@H]5CC=C6CC(O[C@@H]7O[C@H](CO)[C@H](O)[C@H](O[C@@H]8O[C@H](CO)[C@@H](O)[C@H](O)[C@H]8O)[C@H]7O[C@H]7O[C@@H](C)[C@H](O)[C@@H](O)[C@H]7O)CC[C@]6(C)[C@H]5CC[C@]34C)N2C1 (some centres undefined) :
Resp: inactive

Req: Record request — test call for Cn1sc(Cl)cc1=O
Resp: inactive

Req: Entry N#CN : call = ?
Resp: inactive

Req: Please indicate how the test categorized CC(C)(C)c1cc(O)ccc1O .
Resp: active

Req: What did this assay record as the result for c1csc(C2(N3CCCCC3)CCCCC2)c1 ?
Resp: inactive

* * *

# System: CP191
# assay_remarks: qHTS profiling for inhibitors of Plasmodium falciparum proliferation (AID 504749); note: nearly all actives have a fitted effect of over 60% in size
# measurement_setup: P. falciparum in erythrocytes, SYBR Green DNA, 72 h; series mostly up to 28.7 µM
Records with an inconclusive call do not appear. Activity calls are given as the source filed them. The call rests on the fitted dose curve; in most records, active means well fitted inhibition curve with a large enough effect; inconclusive means small, poorly fitted or top-dose-only effect; inactive means flat fitted curve, though single readings scatter.
Allowed answers: active, inactive

Some entries whose results are on file:
INSERT INTO measurements (compound, class) VALUES
  ('Oc1cccc[c]1[Hg][Cl]', 'active'),
  ('COC1=CC=C2[C@H]3Cc4ccc(OC)c5c4[C@@]2(CCN3C)[C@H]1O5', 'inactive'),
  ('O=Cc1ccco1', 'inactive'),
  ('CCC1C(C)=NN=C(c2ccc(OC)c(OC)c2)c2cc(OC)c(OC)cc21 (stereo not drawn)', 'inactive');

Req: For CCCC(C)(COC(N)=O)COC(=O)NC1CC1 (stereo not drawn) , what call appears in the results of this test?
Resp: inactive

Req: Call for entry O=C(CCl)c1ccc(Oc2ccc(C(=O)CCl)cc2)cc1 :
Resp: inactive

Req: Hi team, can someone confirm the assay call for CCCCCCCCOC(=O)c1ccccc1C(=O)OCCCCCCCC ?
Resp: inactive

Req: What outcome does the record of this test show for CCOc1ccc2c3c1O[C@H]1[C@@H](O)C=C[C@H]4[C@@H](C2)N(C)CC[C@@]341 ?
Resp: inactive

Req: GET /call?item= CCCCCl returns the recorded outcome of this test.
Resp: inactive

Req: I would be grateful if you could indicate the recorded call for CCC(C)(S(=O)(=O)CC)S(=O)(=O)CC .
Resp: inactive

Req: Record request — test call for CN1c2ccccc2C(NCCCCCCC(=O)O)c2ccc(Cl)cc2S1(=O)=O (stereo not drawn)
Resp: inactive

Req: # outcome recorded in this test, key = Clc1ccc(Cl)cc1
Resp: inactive

Req: Per the assay record, what outcome was assigned to c1ccc(C2(N3CCCC3)CCCCC2)cc1 ?
Resp: active
